assay: Metabolic Stability Study, liver microsome incubation (human); format: in vitro ADME; conditions: human liver microsomes 0.5 mg/mL, 1 μM compound, NADPH; read-out: CLint (μL × min^−1 × mg^−1) Human
Below: a set of entries, each annotated with reported microsomal CLint at 1 μM.

molecule	u	limit.sign	microsomal CLint at 1 μM
COc1cc(CN2CCN(C3CC4(C3)CN(c3ccc(C(=O)NS(=O)(=O)c5ccc(NC[C@H]6CC[C@](C)(O)CC6)c([N+](=O)[O-])c5)c(Oc5cnc6[nH]cc(F)c6c5)c3)C4)[C@H](c3ccccc3C(C)C)C2)ccc1C	µL/min/mg	=	4
COc1cc(CN2CCN(C3CC4(CCN(c5ccc(C(=O)NS(=O)(=O)c6ccc(NC[C@H]7CC[C@](C)(O)CC7)c([N+](=O)[O-])c6)c(Oc6cnc7[nH]cc(F)c7c6)c5)CC4)C3)[C@H](c3ccccc3C(C)C)C2)cc2c1OCC2(C)C	µL/min/mg	=	4.6
COc1ccc(CN2CCN(C3CC4(CCN(c5ccc(C(=O)NS(=O)(=O)c6ccc(NC[C@H]7CC[C@](C)(O)CC7)c([N+](=O)[O-])c6)c(Oc6cnc7[nH]ccc7c6)c5)CC4)C3)C(c3ccccc3C(C)C)C2)c(OC)c1 (some centres unmarked)	µL/min/mg	=	5.4
COc1cc(CN2CCN(C3CC4(C3)CN(c3ccc(C(=O)NS(=O)(=O)c5ccc(NC[C@H]6CC[C@](C)(O)CC6)c([N+](=O)[O-])c5)c(Oc5cnc6[nH]cc(F)c6c5)c3)C4)[C@H](c3ccccc3C(C)C)C2)ccc1C1CC1	µL/min/mg	=	1.7
CC(C)c1ccccc1C1CN(Cc2ccc(Cl)cc2)CCN1C1CC2(CCN(c3ccc(C(=O)NS(=O)(=O)c4ccc(NC[C@H]5CC[C@](C)(O)CC5)c([N+](=O)[O-])c4)c(Oc4cnc5[nH]ccc5c4)c3)CC2)C1 (some centres unmarked)	µL/min/mg	=	5.6
COc1cc(CN2CCN(C3CC4(CCN(c5ccc(C(=O)NS(=O)(=O)c6ccc(NC[C@H]7CC[C@](C)(O)CC7)c([N+](=O)[O-])c6)c(Oc6cnc7[nH]ccc7c6)c5)CC4)C3)C(c3ccccc3C(C)C)C2)cc(OC)c1 (some centres unmarked)	µL/min/mg	=	14.8
COc1ccc(CN2CCN(C3CC4(CCN(c5ccc(C(=O)NS(=O)(=O)c6ccc(NC[C@H]7CC[C@](C)(O)CC7)c([N+](=O)[O-])c6)c(Oc6cnc7[nH]ccc7c6)c5)CC4)C3)[C@H](c3ccccc3C(C)C)C2)cc1 [Example 19a]	µL/min/mg	<	1
CC(C)c1ccccc1C1CN(Cc2ccc(F)c(F)c2)CCN1C1CC2(CCN(c3ccc(C(=O)NS(=O)(=O)c4ccc(NC[C@H]5CC[C@](C)(O)CC5)c([N+](=O)[O-])c4)c(Oc4cnc5[nH]ccc5c4)c3)CC2)C1 (some centres unmarked)	µL/min/mg	=	9.5
COc1ccc(CN2CCN(C3CC4(C3)CN(c3ccc(C(=O)NS(=O)(=O)c5ccc(NC[C@H]6CC[C@](C)(O)CC6)c([N+](=O)[O-])c5)c(Oc5cnc6[nH]ccc6c5)c3)C4)[C@H](c3ccccc3C(C)C)C2)cc1	µL/min/mg	<	1
COc1ccc(CN2CCN(C3CC4(CCN(c5ccc(C(=O)NS(=O)(=O)c6ccc(NC[C@H]7CC[C@](C)(O)CC7)c([N+](=O)[O-])c6)c(Oc6cnc7[nH]ccc7c6)c5)CC4)C3)C(c3ccccc3C(C)C)C2)cn1 (some centres unmarked)	µL/min/mg	=	2.8
CC(C)c1ccccc1C1CN(Cc2ccc(F)cc2)CCN1C1CC2(CCN(c3ccc(C(=O)NS(=O)(=O)c4ccc(NC[C@H]5CC[C@](C)(O)CC5)c([N+](=O)[O-])c4)c(Oc4cnc5[nH]ccc5c4)c3)CC2)C1 (some centres unmarked)	µL/min/mg	=	10.3

Each recorded value in this set is attributed to patent US20240376097A1.
